// values below are reported protein stability index
B1: WDR41 (parent)
chain: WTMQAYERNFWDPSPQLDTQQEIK

- Variants of: B1
- TEST METHOD NOTES: protein stability index of a GFP-peptide fusion (GPS, HEK-293T) (PSI 1-6); higher = more stable;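 further: lentivirally expressed fusions sorted by FACS into six bins by GFP to DsRed ratio, PSI derived from sequencing read proportions per bin multiplied by bin number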
- TEST SETTINGS: c terminus: a fixed tail appended

MUTATION DESCRIPTOR: M3H
protein stability index: 2.63
//
MUTATION DESCRIPTOR: Q21S
protein stability index: 3.13
//
MUTATION DESCRIPTOR: A5P
protein stability index: 2.49
//
MUTATION DESCRIPTOR: W1Q
protein stability index: 4.81
//
MUTATION DESCRIPTOR: W11P
protein stability index: 3.97
//
MUTATION DESCRIPTOR: W11N
protein stability index: 4.21
//
MUTATION DESCRIPTOR: I23N
protein stability index: 3.24
//
MUTATION DESCRIPTOR: L17H
protein stability index: 3.32
//
MUTATION DESCRIPTOR: K24E
protein stability index: 3.06
//
MUTATION DESCRIPTOR: A5I
protein stability index: 1.68
//
MUTATION DESCRIPTOR: D18W
protein stability index: 1.83
//
MUTATION DESCRIPTOR: L17P
protein stability index: 2.9
//
MUTATION DESCRIPTOR: Y6G
protein stability index: 2.86
//
MUTATION DESCRIPTOR: S14P
protein stability index: 3.16
//
MUTATION DESCRIPTOR: Q21F
protein stability index: 1.93
//
MUTATION DESCRIPTOR: K24C
protein stability index: 2.19
//
MUTATION DESCRIPTOR: P15C
protein stability index: 2.3
//
MUTATION DESCRIPTOR: Q16E
protein stability index: 2.64
//
MUTATION DESCRIPTOR: Y6K
protein stability index: 3.06
//
MUTATION DESCRIPTOR: R8L
protein stability index: 2.42
